meta.source: patent US20020177180A1

Test system: esterase E020
Assay Comment: Initial screening of ThermoGen esterases toward esters 1-31 (pH indicator), specific activity
Assay type: biochemical
Run Conditions: 1 mM substrate, pH 7.2, 7 vol % acetonitrile, 25° C.
Specific activity, esterase E020 overview

Q. Would you mind telling me what Specific activity, esterase E020 value was observed for COC(=O)CBr [Substrate 19] ?
A. 1.6 mmol ester hydrolyzed/min/mg protein

----------
Assay Comment: physchem
Parameter Measured: pKa
Just the number, please, no unit attached.

Q. Would you mind telling me what pKa value was observed for `O=c1ccc2nc3ccc(O)cc3oc-2c1` ?
A. 8.15

----------
Tested on: esterase E016
Assay Comment: Initial screening of ThermoGen esterases toward esters 1-31 (pH indicator), specific activity
Type: biochemical
Run Conditions: 1 mM substrate, pH 7.2, 7 vol % acetonitrile, 25° C.
Parameter Measured: Specific activity, esterase E016

Q. Would you mind telling me what Specific activity, esterase E016 value was observed for COC(=O)c1ccc(CO)cc1 [Substrate 23] ?
A. <2 mmol ester hydrolyzed/min/mg protein

Q. Would you mind telling me what Specific activity, esterase E016 value was observed for C=C(C)OC(C)=O [Substrate 27] ?
A. 49 mmol ester hydrolyzed/min/mg protein

Q. Would you mind telling me what Specific activity, esterase E016 value was observed for CCOC(=O)CN.Cl [Substrate 31] ?
A. 13 mmol ester hydrolyzed/min/mg protein

Q. Would you mind telling me what Specific activity, esterase E016 value was observed for CCCCCCCCCCCCCC(=O)Oc1ccc2nc3ccc(=O)cc-3oc2c1 [Substrate 6, Resorufin tetradecanoate, reference compound] ?
A. 15 mmol ester hydrolyzed/min/mg protein

Q. Would you mind telling me what Specific activity, esterase E016 value was observed for COC(=O)Cc1ccccc1 [Substrate 22] ?
A. <2 mmol ester hydrolyzed/min/mg protein

Q. Would you mind telling me what Specific activity, esterase E016 value was observed for CCCC(=O)OCC [Substrate 13] ?
A. 3.5 mmol ester hydrolyzed/min/mg protein

Okay, next one:
Q. Would you mind telling me what Specific activity, esterase E016 value was observed for CCCC(=O)OCC1COC(C)(C)O1 (racemic) [Substrate 8, (±)-Solketal Butyrate, reference compound] ?
A. 2.2 mmol ester hydrolyzed/min/mg protein
